pKi: −log10 of the molar value.
List of pKi tested on rat mGluR5 (Rattus norvegicus, UniProt P31424).
Sequence (P31424 21-1203): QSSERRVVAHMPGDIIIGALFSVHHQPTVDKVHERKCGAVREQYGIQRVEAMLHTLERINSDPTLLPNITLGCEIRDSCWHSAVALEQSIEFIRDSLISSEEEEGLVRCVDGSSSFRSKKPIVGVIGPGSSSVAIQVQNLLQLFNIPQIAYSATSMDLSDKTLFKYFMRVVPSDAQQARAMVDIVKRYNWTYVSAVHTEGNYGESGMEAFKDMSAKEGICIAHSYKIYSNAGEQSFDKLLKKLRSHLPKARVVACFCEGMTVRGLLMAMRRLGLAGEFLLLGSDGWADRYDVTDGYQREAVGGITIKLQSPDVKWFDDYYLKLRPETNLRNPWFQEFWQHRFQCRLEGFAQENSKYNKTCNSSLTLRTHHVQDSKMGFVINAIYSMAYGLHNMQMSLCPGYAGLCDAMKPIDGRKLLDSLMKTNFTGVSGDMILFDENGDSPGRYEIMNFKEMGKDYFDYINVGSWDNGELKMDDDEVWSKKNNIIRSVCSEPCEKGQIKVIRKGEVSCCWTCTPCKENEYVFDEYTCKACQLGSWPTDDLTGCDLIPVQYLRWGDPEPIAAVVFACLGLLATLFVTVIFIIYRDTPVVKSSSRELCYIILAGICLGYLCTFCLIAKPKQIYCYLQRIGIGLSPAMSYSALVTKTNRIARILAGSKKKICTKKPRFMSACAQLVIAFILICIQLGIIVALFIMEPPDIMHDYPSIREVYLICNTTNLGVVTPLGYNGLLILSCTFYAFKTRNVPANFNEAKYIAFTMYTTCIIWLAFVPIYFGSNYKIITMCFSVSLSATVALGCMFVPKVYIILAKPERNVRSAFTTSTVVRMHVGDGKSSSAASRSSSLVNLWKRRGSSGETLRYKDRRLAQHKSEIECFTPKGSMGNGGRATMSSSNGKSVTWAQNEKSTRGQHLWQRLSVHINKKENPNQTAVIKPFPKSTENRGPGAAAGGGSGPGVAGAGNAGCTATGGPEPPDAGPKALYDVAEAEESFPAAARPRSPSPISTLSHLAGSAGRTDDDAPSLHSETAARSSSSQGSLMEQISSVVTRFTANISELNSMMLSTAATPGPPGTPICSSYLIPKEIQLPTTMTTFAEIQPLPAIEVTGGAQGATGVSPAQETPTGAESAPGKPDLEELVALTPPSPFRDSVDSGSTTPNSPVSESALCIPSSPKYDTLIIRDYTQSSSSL

COMPOUND STRUCTURE: O=S(=O)(c1ccc(F)c(F)c1)c1cnc2cc(F)ccc2c1-c1ccc(F)c(F)c1
pKi: > 6.70
--
COMPOUND STRUCTURE: Cc1ccc(S(=O)(=O)c2cnc3cc(F)ccc3c2-c2ccc(Cl)cc2)cc1C
pKi: > 6.70
--
COMPOUND STRUCTURE: O=S(=O)(c1cc(Cl)cc(Cl)c1)c1cnc2cc(Cl)ccc2c1-c1ccc(F)cc1
pKi: > 6.70
--
COMPOUND STRUCTURE: O=S(=O)(c1cc(F)cc(F)c1)c1cnc2cc(Cl)c(F)cc2c1-c1ccc(F)cc1
pKi: 6.30 to 6.70
--
COMPOUND STRUCTURE: COc1ccc(-c2c(S(=O)(=O)c3cc(Cl)cc(Cl)c3)cnc3c(F)cccc23)cc1
pKi: > 6.70
--
COMPOUND STRUCTURE: O=S(=O)(c1cc(Cl)cc(Cl)c1)c1cnc2ccc(F)cc2c1-c1cccc(Cl)c1
pKi: > 6.70
--
COMPOUND STRUCTURE: N#Cc1cccc(S(=O)(=O)c2cnc3ccccc3c2-c2cccc(F)c2)c1
pKi: > 6.70
--
COMPOUND STRUCTURE: O=S(=O)(c1ccc(F)cc1)c1cnc2ccc(F)cc2c1-c1cccc(Cl)c1
pKi: < 6.30

====

Recorded Ki, one value per entry.
Biological target: rat mGluR1 (Rattus norvegicus)
PROPERTY NAME: Ki

COMPOUND: COc1ccc(-c2c(S(=O)(=O)c3cc(F)cc(F)c3)cnc3cc(F)ccc23)cc1 [Compound 89]
PROPERTY NAME: Ki
VALUE MEASURED: > 500 nM
--
COMPOUND: O=S(=O)(c1ccc(F)c(Cl)c1)c1cnc2cc(Cl)ccc2c1-c1ccc(Cl)cc1 [Compound 176]
PROPERTY NAME: Ki
VALUE MEASURED: > 500 nM
--
COMPOUND: O=S(=O)(c1cc(Cl)cc(Cl)c1)c1cnc2cc(F)ccc2c1-c1ccc(F)cc1 [Compound 83]
PROPERTY NAME: Ki
VALUE MEASURED: 200 to 500 nM
--
COMPOUND: N#Cc1cccc(S(=O)(=O)c2cnc3ccccc3c2-c2cccc(F)c2)c1 [Compound 214]
PROPERTY NAME: Ki
VALUE MEASURED: > 500 nM
--
COMPOUND: COc1ccc(S(=O)(=O)c2cnc3ccc(F)cc3c2-c2ccc(F)cc2)cc1Cl [Compound 165]
PROPERTY NAME: Ki
VALUE MEASURED: > 500 nM
--
COMPOUND: N#Cc1cc(S(=O)(=O)c2cnc3cc(F)ccc3c2-c2cccc(F)c2)ccc1F [Compound 216]
PROPERTY NAME: Ki
VALUE MEASURED: > 500 nM
--
COMPOUND: O=S(=O)(c1ccc(F)cc1)c1cnc2cc(Cl)ccc2c1-c1cccc(F)c1 [Compound 167]
PROPERTY NAME: Ki
VALUE MEASURED: > 500 nM
--
COMPOUND: N#Cc1cc(S(=O)(=O)c2cnc3cc(Cl)ccc3c2-c2cccc(Cl)c2)ccc1F [Compound 242]
PROPERTY NAME: Ki
VALUE MEASURED: < 200 nM
--
COMPOUND: O=S(=O)(c1cc(F)cc(F)c1)c1cnc2cc(Cl)c(F)cc2c1-c1ccc(F)cc1 [Compound 202]
PROPERTY NAME: Ki
VALUE MEASURED: > 500 nM
--
COMPOUND: O=S(=O)(c1ccc(F)cc1)c1cnc2c(F)cccc2c1-c1cccc(F)c1 [Compound 22]
PROPERTY NAME: Ki
VALUE MEASURED: 200 to 500 nM
--
COMPOUND: O=S(=O)(c1ccc(F)c(F)c1)c1cnc2c(F)cccc2c1-c1cccc(Cl)c1 [Compound 259]
PROPERTY NAME: Ki
VALUE MEASURED: > 500 nM
--
COMPOUND: COc1cccc(-c2c(S(=O)(=O)c3ccc(C)c(F)c3)cnc3c(F)cccc23)c1 [Compound 113]
PROPERTY NAME: Ki
VALUE MEASURED: > 500 nM
--
COMPOUND: O=S(=O)(c1cccc(F)c1)c1cnc2c(F)cccc2c1-c1ccc(F)cc1 [Compound 63]
PROPERTY NAME: Ki
VALUE MEASURED: 200 to 500 nM
--
COMPOUND: COc1ccc(S(=O)(=O)c2cnc3c(F)cccc3c2-c2cccc(Cl)c2)cc1 [Compound 53]
PROPERTY NAME: Ki
VALUE MEASURED: > 500 nM
--
COMPOUND: COc1ccc(-c2c(S(=O)(=O)c3cccc(F)c3)cnc3cc(F)ccc23)cc1 [Compound 42]
PROPERTY NAME: Ki
VALUE MEASURED: > 500 nM
--
COMPOUND: COc1ccc(S(=O)(=O)c2cnc3cc(F)ccc3c2-c2ccc(Cl)cc2)cc1 [Compound 11]
PROPERTY NAME: Ki
VALUE MEASURED: > 500 nM
--
COMPOUND: O=S(=O)(c1ccc(F)cc1)c1cnc2ccc(F)cc2c1-c1cccc(F)c1 [Compound 26]
PROPERTY NAME: Ki
VALUE MEASURED: > 500 nM

====

Molecular target: rat mGluR1 (Rattus norvegicus, UniProt P23385)
Sequence (P23385 19-1199): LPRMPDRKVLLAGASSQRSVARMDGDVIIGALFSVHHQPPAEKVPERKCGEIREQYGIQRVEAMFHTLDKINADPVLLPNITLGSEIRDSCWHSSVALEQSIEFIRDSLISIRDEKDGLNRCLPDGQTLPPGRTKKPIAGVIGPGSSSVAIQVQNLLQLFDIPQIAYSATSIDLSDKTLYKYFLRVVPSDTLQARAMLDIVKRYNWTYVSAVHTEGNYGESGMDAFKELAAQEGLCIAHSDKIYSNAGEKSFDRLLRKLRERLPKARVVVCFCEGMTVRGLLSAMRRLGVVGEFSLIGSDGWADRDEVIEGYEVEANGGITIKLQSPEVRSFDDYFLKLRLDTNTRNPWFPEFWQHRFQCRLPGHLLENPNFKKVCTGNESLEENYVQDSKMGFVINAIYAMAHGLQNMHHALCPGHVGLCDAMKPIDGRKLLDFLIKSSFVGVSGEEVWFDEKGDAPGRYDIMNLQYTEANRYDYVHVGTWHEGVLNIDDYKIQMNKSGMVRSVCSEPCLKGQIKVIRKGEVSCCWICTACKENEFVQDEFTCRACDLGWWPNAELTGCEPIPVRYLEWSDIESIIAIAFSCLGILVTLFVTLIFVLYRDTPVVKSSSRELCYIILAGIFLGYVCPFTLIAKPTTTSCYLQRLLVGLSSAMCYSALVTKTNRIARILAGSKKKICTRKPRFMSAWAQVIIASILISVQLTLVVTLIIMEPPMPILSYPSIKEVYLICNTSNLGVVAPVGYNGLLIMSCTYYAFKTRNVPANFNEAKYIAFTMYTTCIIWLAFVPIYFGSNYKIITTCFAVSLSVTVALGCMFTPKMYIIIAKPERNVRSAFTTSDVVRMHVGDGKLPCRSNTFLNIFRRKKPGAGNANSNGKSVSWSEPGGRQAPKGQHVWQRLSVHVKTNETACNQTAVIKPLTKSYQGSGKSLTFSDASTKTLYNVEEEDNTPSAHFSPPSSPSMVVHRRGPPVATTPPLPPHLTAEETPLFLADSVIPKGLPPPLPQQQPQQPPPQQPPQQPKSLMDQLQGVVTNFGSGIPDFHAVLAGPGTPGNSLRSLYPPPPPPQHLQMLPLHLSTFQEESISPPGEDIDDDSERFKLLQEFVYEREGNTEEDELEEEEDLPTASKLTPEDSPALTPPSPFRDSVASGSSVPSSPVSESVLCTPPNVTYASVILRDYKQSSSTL

MOLECULE: COc1ccc(S(=O)(=O)c2cnc3c(F)cccc3c2-c2ccc(Cl)cc2)cc1 [Compound 54]
TARGET UNDER TEST: rat mGluR1 (Rattus norvegicus, UniProt P23385)
Ki: < 200 nM

MOLECULE: N#Cc1cccc(S(=O)(=O)c2cnc3cc(F)ccc3c2-c2ccc(Cl)cc2)c1 [Compound 37]
TARGET UNDER TEST: rat mGluR1 (Rattus norvegicus, UniProt P23385)
Ki: 200 to 500 nM

MOLECULE: COc1ccc(S(=O)(=O)c2cnc3ccc(F)cc3c2-c2cccc(Cl)c2)cc1OC [Compound 70]
TARGET UNDER TEST: rat mGluR1 (Rattus norvegicus, UniProt P23385)
Ki: > 500 nM

MOLECULE: O=S(=O)(c1ccc(F)c(F)c1)c1cnc2cc(Cl)ccc2c1-c1cccc(F)c1 [Compound 170]
TARGET UNDER TEST: rat mGluR1 (Rattus norvegicus, UniProt P23385)
Ki: > 500 nM

====

Listing: pKi of selected molecules
Molecular target: rat mGluR1 (Rattus norvegicus, UniProt P23385)
pKi: −log10 of the molar value.

COMPOUND STRUCTURE: O=S(=O)(c1ccc(F)c(F)c1)c1cnc2ccc(F)cc2c1-c1cccc(F)c1
pKi: 6.30 to 6.70
//
COMPOUND STRUCTURE: O=S(=O)(c1ccc(F)c(F)c1)c1cnc2cc(F)ccc2c1-c1ccc(F)c(F)c1
pKi: < 6.30
//
COMPOUND STRUCTURE: N#Cc1cccc(S(=O)(=O)c2cnc3c(F)cccc3c2-c2cccc(Cl)c2)c1
pKi: < 6.30
//
COMPOUND STRUCTURE: COc1ccc(-c2c(S(=O)(=O)c3cccc(C#N)c3)cnc3cc(F)ccc23)cc1
pKi: 6.30 to 6.70
//
COMPOUND STRUCTURE: O=S(=O)(c1cc(Cl)cc(Cl)c1)c1cnc2ccc(F)cc2c1-c1cccc(F)c1
pKi: 6.30 to 6.70
//
COMPOUND STRUCTURE: COc1cccc(-c2c(S(=O)(=O)c3ccc(OC)c(Cl)c3)cnc3ccc(F)cc23)c1
pKi: < 6.30
//
COMPOUND STRUCTURE: COc1ccc(-c2c(S(=O)(=O)c3cc(Cl)cc(Cl)c3)cnc3cc(F)ccc23)cc1
pKi: < 6.30
//
COMPOUND STRUCTURE: N#Cc1cc(S(=O)(=O)c2cnc3ccccc3c2-c2ccc(Cl)c(Cl)c2)ccc1F
pKi: < 6.30
//
COMPOUND STRUCTURE: COc1ccc(S(=O)(=O)c2cnc3cc(F)ccc3c2-c2cccc(Cl)c2)cc1Cl
pKi: 6.30 to 6.70
//
COMPOUND STRUCTURE: O=S(=O)(c1cc(Cl)cc(Cl)c1)c1cnc2cc(F)ccc2c1-c1ccccc1F
pKi: < 6.30
//
COMPOUND STRUCTURE: N#Cc1cc(S(=O)(=O)c2cnc3ccccc3c2-c2ccc(F)cc2)ccc1F
pKi: < 6.30
//
COMPOUND STRUCTURE: N#Cc1cc(S(=O)(=O)c2cnc3cc(Cl)ccc3c2-c2ccc(F)cc2)ccc1F
pKi: 6.30 to 6.70
//
COMPOUND STRUCTURE: COc1ccc(-c2c(S(=O)(=O)c3cccc(C#N)c3)cnc3ccc(F)cc23)cc1
pKi: < 6.30
//
COMPOUND STRUCTURE: COc1cccc(-c2c(S(=O)(=O)c3ccc(F)c(Cl)c3)cnc3ccc(F)cc23)c1
pKi: < 6.30
//
COMPOUND STRUCTURE: N#Cc1cccc(S(=O)(=O)c2cnc3cc(Cl)ccc3c2-c2cccc(Cl)c2)c1
pKi: 6.30 to 6.70
//
COMPOUND STRUCTURE: Cc1ccc(S(=O)(=O)c2cnc3ccc(F)cc3c2-c2cccc(F)c2)cc1C
pKi: < 6.30
//
COMPOUND STRUCTURE: COc1ccc(-c2c(S(=O)(=O)c3cc(F)cc(F)c3)cnc3c(F)cccc23)cc1
pKi: < 6.30
//
COMPOUND STRUCTURE: O=S(=O)(c1ccc(F)c(F)c1)c1cnc2cc(F)ccc2c1-c1ccc(F)cc1
pKi: 6.30 to 6.70
//
COMPOUND STRUCTURE: O=S(=O)(c1cc(F)cc(F)c1)c1cnc2cc(F)ccc2c1-c1cccc(Cl)c1
pKi: < 6.30
//
COMPOUND STRUCTURE: N#Cc1cc(S(=O)(=O)c2cnc3cc(F)ccc3c2-c2cccc(Cl)c2)ccc1F
pKi: < 6.30
//
COMPOUND STRUCTURE: COc1ccc(S(=O)(=O)c2cnc3c(F)cccc3c2-c2cccc(F)c2)cc1
pKi: < 6.30
//
COMPOUND STRUCTURE: COc1ccc(-c2c(S(=O)(=O)c3cccc(OC)c3)cnc3ccc(F)cc23)cc1
pKi: < 6.30
//
COMPOUND STRUCTURE: COc1ccc(-c2c(S(=O)(=O)c3ccc(F)c(F)c3)cnc3c(F)cccc23)cc1
pKi: < 6.30
//
COMPOUND STRUCTURE: N#Cc1cccc(S(=O)(=O)c2cnc3c(F)cccc3c2-c2ccccc2F)c1
pKi: < 6.30
//
COMPOUND STRUCTURE: N#Cc1cc(F)cc(S(=O)(=O)c2cnc3cc(F)ccc3c2-c2ccc(F)cc2)c1
pKi: < 6.30
//
COMPOUND STRUCTURE: O=S(=O)(c1cccc(F)c1)c1cnc2cc(F)ccc2c1-c1ccc(F)cc1
pKi: < 6.30

Where do these numbers come from? They come from patent US8063220B2.
